- measuredTarget: T1, human CTGF (Homo sapiens, UniProt P29279)
- T1 construct: purchased Creative Biomart
- T1 sequence (P29279 with tags, fused parts or gaps H83D): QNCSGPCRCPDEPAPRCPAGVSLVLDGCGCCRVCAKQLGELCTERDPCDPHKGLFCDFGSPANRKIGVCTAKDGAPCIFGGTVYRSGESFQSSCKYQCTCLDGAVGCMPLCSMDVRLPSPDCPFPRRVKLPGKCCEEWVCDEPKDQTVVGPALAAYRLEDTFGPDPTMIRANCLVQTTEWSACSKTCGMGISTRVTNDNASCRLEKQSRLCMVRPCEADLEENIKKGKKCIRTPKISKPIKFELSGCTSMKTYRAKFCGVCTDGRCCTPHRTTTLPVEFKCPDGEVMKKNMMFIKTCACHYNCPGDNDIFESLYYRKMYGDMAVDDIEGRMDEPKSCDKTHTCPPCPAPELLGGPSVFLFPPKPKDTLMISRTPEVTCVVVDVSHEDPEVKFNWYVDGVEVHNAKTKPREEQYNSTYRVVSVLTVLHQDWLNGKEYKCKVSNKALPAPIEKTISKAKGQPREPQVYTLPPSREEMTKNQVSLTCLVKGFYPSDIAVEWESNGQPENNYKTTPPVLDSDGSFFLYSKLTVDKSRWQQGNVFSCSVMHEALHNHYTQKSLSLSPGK
- procedureDetails: SPR binding kinetics and affinity, human CTGF
- conditionDetails: 25° C., 1:1 binding model
Exercise: state measured human CTGF koff for each of the molecules provided.
Entry rule: numbers only, all in s⁻¹.

Please report the measured human CTGF koff for SEQ ID NO: 14: optimized CTGF-binding hNGAL lipocalin mutein (protein, lipocalin mutein) QDSTSDLIPAPPLSKVPLQQNFQDNQFQGKWYVVGLAGNAILREDKYPAKMFATIYELKEDKSYDVTSVRFEAKSCIYTIKTFVPGSQPGEFTRGNIKSAPGQTSTLVRVVSTNYNQHAMVFFKHVSQNREIFVITLYGRTKELTSELKENFIRFSKSLGLPENHIVFPVPIDQCIDG 5.34e-05

Given SEQ ID NO: 15: optimized CTGF-binding hNGAL lipocalin mutein (protein, lipocalin mutein) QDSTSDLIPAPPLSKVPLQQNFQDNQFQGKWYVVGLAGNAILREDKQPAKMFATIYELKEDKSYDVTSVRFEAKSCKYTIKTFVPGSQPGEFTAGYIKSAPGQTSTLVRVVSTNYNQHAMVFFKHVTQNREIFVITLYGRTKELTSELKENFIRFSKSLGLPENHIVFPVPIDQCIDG , respond with its human CTGF koff. 4.47e-05

Given the molecule SEQ ID NO: 28: optimized CTGF-binding hNGAL lipocalin mutein (protein, lipocalin mutein) QDSTSDLIPAPPLSKVPLQQNFQDNQFQGKWYVVGLAGNYRLREDKDPSKMGATIYELKEDKSYDVTQVQFDDKKCLYVIETFVPGSQPGEFTLGAIKSYPGLTSQLVRVVSTNYNQHAMVFVKKVWPNLEYFQIVLYGRTKELTSELKENFIRFSKSLGLPENHIVFPVPIDQCIDG , write its reported human CTGF koff. 2.61e-05
